Source listed as patent US10799507B2.

The entries below come with measured pEC50 values attached.
target: JAK1 (Homo sapiens (Human), UniProt P23458); assay: JAK kinase assay (HTRF), JAK1; conditions: catalytic domain, ATP at Km (7 μM)
Sequence (P23458 850-1154): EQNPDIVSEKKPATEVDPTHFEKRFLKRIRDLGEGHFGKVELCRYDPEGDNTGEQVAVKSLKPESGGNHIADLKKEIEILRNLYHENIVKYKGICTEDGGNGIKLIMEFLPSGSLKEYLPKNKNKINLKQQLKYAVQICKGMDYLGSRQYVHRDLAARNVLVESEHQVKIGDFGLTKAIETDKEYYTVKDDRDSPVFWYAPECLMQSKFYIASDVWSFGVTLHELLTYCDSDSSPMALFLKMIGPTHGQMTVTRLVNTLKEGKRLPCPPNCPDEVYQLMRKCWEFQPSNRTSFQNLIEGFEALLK
pEC50 is a log-scale quantity: -log10 of the concentration expressed in molar.

COMPOUND | ASSAYED SYSTEM | pEC50
O=C(N[C@@H](CO)[C@@H](O)c1ccc(F)cc1)[C@H]1CCN(c2ncnc3[nH]ccc23)CC12CC2 | JAK1 (Homo sapiens (Human), UniProt P23458) | 9.15
O=C(NCC1(O)CCC1)[C@H]1CCN(c2ncnc3[nH]ccc23)CC12CC2 | JAK1 (Homo sapiens (Human), UniProt P23458) | 8.29
COc1cccc([C@@H](C)NC(=O)C2CCN(c3ncnc4[nH]ccc34)CC23CC3)c1 (some centres unmarked) | JAK1 (Homo sapiens (Human), UniProt P23458) | 7.41
N#Cc1ccc(C(O)CNC(=O)C2CCN(c3ncnc4[nH]ccc34)CC23CC3)cc1 (centres unmarked) | JAK1 (Homo sapiens (Human), UniProt P23458) | 8.62

Ask | Suppose we examine the compound O=C(N[C@H](CO)Cc1ccccc1)C1CCN(c2ncnc3[nH]ccc23)CC12CC2 (some centres unmarked) ; what pEC50 value has been reported?
Reply | 7.39

Ask | Repeat with O=C(NC[C@@H](O)C1CCCC1)[C@H]1CCN(c2ncnc3[nH]ccc23)CC12CC2 [Example 1]
Reply | 9.30

Ask | Repeat with N#Cc1cccc([C@H](CO)NC(=O)[C@H]2CCN(c3ncnc4[nH]ccc34)CC23CC3)c1
Reply | 8.29

Ask | Repeat with C[C@@H](NC(=O)C1CCN(c2ncnc3[nH]ccc23)CC12CC2)c1ccc(F)c(F)c1 (some centres unmarked)
Reply | 7.94

----------
molecular target: TYK2 (Homo sapiens (Human)); test: JAK kinase assay (HTRF), TYK2; type: biochemical; conditions: catalytic domain, ATP at Km (13 μM)
Sequence (P29597 871-1187): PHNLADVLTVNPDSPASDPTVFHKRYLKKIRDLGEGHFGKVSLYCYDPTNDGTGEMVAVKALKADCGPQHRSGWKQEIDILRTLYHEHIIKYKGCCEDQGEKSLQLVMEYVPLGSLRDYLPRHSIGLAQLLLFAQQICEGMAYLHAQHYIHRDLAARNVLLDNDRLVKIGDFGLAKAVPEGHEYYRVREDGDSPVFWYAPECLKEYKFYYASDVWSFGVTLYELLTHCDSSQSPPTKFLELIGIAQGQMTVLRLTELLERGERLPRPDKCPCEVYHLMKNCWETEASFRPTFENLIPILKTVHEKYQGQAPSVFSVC
OUTCOME MEASURE: EC50

These solved cases illustrate the format of a correct answer.
MOLECULE | ASSAYED SYSTEM | EC50
O=C(N[C@H](CO)c1ccccn1)[C@H]1CCN(c2ncnc3[nH]ccc23)CC12CC2 | TYK2 (Homo sapiens (Human)) | 466 nM
O=C(NCC1CC(F)(F)C1)C1CCN(c2ncnc3[nH]ccc23)CC12CC2 (stereo not shown) | TYK2 (Homo sapiens (Human)) | 170 nM
O=C(NCC1(O)CCCCC1)[C@H]1CCN(c2ncnc3[nH]ccc23)CC12CC2 | TYK2 (Homo sapiens (Human)) | 55.7 nM

Ask | Suppose we examine the molecule N#Cc1cccc([C@H](O)CNC(=O)[C@H]2CCN(c3ncnc4[nH]ccc34)CC23CC3)c1 ; what EC50 value has been reported?
Reply | 110 nM

----------
Target: JAK1 (Homo sapiens (Human))
Assay: JAK kinase assay (HTRF), JAK1
Conditions: catalytic domain, ATP at Km (7 μM)
Experimental: Human baculovirus-expressed JAK1, 2, 3 and TYK2 were purchased from Carna Biosciences, Inc. All four purified enzymes contain only the catalytic domain. […] Inhibition of phosphorylation of a synthetic peptide was measured in an HTRF-based assay using the TK substrate-Biotin from the Cisbio HTRFKinEASE TK kit. […] The HTRF signal is read using an Envision plate reader.
OUTCOME MEASURE: EC50 (nM)
Lab book: enter the figure in nM, no units written.

These solved cases illustrate the format of a correct answer.
MOLECULE | OUTCOME MEASURE | READOUT NUMBER
N#Cc1ccc([C@H](CO)NC(=O)C2CCN(c3ncnc4[nH]ccc34)CC23CC3)cc1 (stereo partly shown) [Example 19] | EC50 | 1.1
O=C(NC[C@@H](O)c1ccccc1)C1CCN(c2ncnc3[nH]ccc23)CC12CC2 (stereo partly shown) [Example 63] | EC50 | 4.5
O=C(N[C@@H](CO)[C@H](O)c1ccc(F)cn1)[C@H]1CCN(c2ncnc3[nH]ccc23)CC12CC2 (single isomer, unassigned) [Example 30] | EC50 | 1.4
COc1cc(C#N)ccc1[C@H](C)NC(=O)[C@H]1CCN(c2ncnc3[nH]ccc23)CC12CC2 [Example 97] | EC50 | 8.7
Cc1cc([C@H](CO)NC(=O)[C@H]2CCN(c3ncnc4[nH]ccc34)CC23CC3)ccc1C#N [Example 54] | EC50 | 3.6
C[C@H](NC(=O)C1CCN(c2ncnc3[nH]ccc23)CC12CC2)c1ccc(C#N)cc1 (stereo partly shown) [Example 21] | EC50 | 1.1

Proceeding to the next molecule to report its EC50.
Ask | Suppose we examine the molecule O=C(N[C@H](CO)C(=O)OC1CCCC1)[C@H]1CCN(c2ncnc3[nH]ccc23)CC12CC2 [Example 96] ; what EC50 value has been reported?
Reply | 8.7

----------
target: JAK2 (Homo sapiens (Human)); assay: JAK kinase assay (HTRF), JAK2; conditions: catalytic domain, ATP at Km (4 μM)
Sequence (O60674 849-1124): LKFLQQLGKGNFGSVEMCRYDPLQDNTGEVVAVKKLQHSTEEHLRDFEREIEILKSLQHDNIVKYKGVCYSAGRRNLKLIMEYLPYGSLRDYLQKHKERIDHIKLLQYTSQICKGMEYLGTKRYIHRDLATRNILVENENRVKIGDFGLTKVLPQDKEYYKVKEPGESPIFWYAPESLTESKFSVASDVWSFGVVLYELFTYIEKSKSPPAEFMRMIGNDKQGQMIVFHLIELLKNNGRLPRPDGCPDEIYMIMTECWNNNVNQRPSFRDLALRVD
The entries below come with measured EC50 values attached.
Lab book: enter the figure in nM, no units written.

These solved cases illustrate the format of a correct answer.
COMPOUND | UOM | READOUT NUMBER
C[C@H](NC(=O)[C@H]1CCN(c2ncnc3[nH]ccc23)CC12CC2)[C@@H](O)C1CCCC1 [Example 5] | nM | 1.1
C[C@H](NC(=O)[C@H]1CCN(c2ncnc3[nH]ccc23)CC12CC2)[C@@H](O)C1CCCCC1 [Example 3] | nM | 1.1
O=C(NC[C@@H](O)C1CCCCC1)[C@H]1CCN(c2ncnc3[nH]ccc23)CC12CC2 [Example 4] | nM | 1.2

Ask | Suppose we examine the compound C[C@@](CO)(NC(=O)[C@H]1CCN(c2ncnc3[nH]ccc23)CC12CC2)c1ccc(C#N)cn1 [Example 57] ; what EC50 value has been reported?
Reply | 9

Ask | Repeat with COc1ccc([C@H](C)NC(=O)C2CCN(c3ncnc4[nH]ccc34)CC23CC3)cc1 (some centres unmarked) [Example 66]
Reply | 8.3

Ask | Repeat with C[C@](CO)(NC(=O)[C@H]1CCN(c2ncnc3[nH]ccc23)CC12CC2)c1ccc(C#N)cn1 [Example 78]
Reply | 17

Ask | Repeat with CC(CO)(NC(=O)C1CCN(c2ncnc3[nH]ccc23)CC12CC2)c1ccccc1 (centres unmarked) [Example 118]
Reply | 24.3

Ask | Repeat with O=C(OCC1(CO)CCC1)[C@H]1CCN(c2ncnc3[nH]ccc23)CC12CC2 [Example 157]
Reply | 2.1

----------
The entries below come with measured pEC50 values attached.
target: JAK2 (Homo sapiens (Human)); test: JAK kinase assay (HTRF), JAK2; conditions: catalytic domain, ATP at Km (4 μM)
pEC50 is a log-scale quantity: -log10 of the concentration expressed in molar.

These solved cases illustrate the format of a correct answer.
COMPOUND | pEC50
O=C(NCC1(O)CCCCC1)[C@H]1CCN(c2ncnc3[nH]ccc23)CC12CC2 [Example 74] | 7.82
O=C(NCCc1ccccc1)C1CCN(c2ncnc3[nH]ccc23)CC12CC2 (stereo not shown) [Example 114] | 7.43
N#Cc1ccc([C@H](CO)NC(=O)C2CCN(c3ncnc4[nH]ccc34)CC23CC3)cc1 (stereo partly shown) [Example 19] | 8.40

Ask | Suppose we examine the compound C[C@H](NC(=O)[C@H]1CCN(c2ncnc3[nH]ccc23)CC12CC2)[C@@H](O)c1ccc(F)cc1 [Example 6] ; what pEC50 value has been reported?
Reply | 8.85

Ask | Repeat with C[C@@H](NC(=O)C1CCN(c2ncnc3[nH]ccc23)CC12CC2)c1ccc(F)c(C#N)c1 (stereo partly shown) [Example 123]
Reply | 7.67

----------
molecular target: TYK2 (Homo sapiens (Human)); assay: JAK kinase assay (HTRF), TYK2; conditions: catalytic domain, ATP at Km (13 μM)
pEC50: −log10 of the molar value.
Binary classification by pEC50, with 7 as an inclusive lower bound for T; all other cases are F.

Below, 8 molecules whose answers are already recorded.
MOLECULE | ASSAYED SYSTEM | LABEL VALUE
N#CCC1(CNC(=O)C2CCN(c3ncnc4[nH]ccc34)CC23CC3)CC1 (stereo not shown) | TYK2 (Homo sapiens (Human)) | F
O=C(NCC1CC(F)(F)C1)[C@H](O)CNC(=O)[C@H]1CCN(c2ncnc3[nH]ccc23)CC12CC2 (single isomer, unassigned) | TYK2 (Homo sapiens (Human)) | F
C[C@](CO)(NC(=O)[C@H]1CCN(c2ncnc3[nH]ccc23)CC12CC2)c1ccc(C#N)cc1 | TYK2 (Homo sapiens (Human)) | T
O=C(N[C@H](CO)C(=O)OCC1(CO)CC1)[C@H]1CCN(c2ncnc3[nH]ccc23)CC12CC2 | TYK2 (Homo sapiens (Human)) | F
O=C(NC[C@H](O)c1ccc(F)cn1)[C@H]1CCN(c2ncnc3[nH]ccc23)CC12CC2 | TYK2 (Homo sapiens (Human)) | T
O=C(N[C@@H](CO)[C@H](O)c1ccc(F)cc1)[C@H]1CCN(c2ncnc3[nH]ccc23)CC12CC2 | TYK2 (Homo sapiens (Human)) | T
O=C(NC[C@@H](O)c1ccc(F)cn1)[C@H]1CCN(c2ncnc3[nH]ccc23)CC12CC2 | TYK2 (Homo sapiens (Human)) | T
N#Cc1cccc([C@H](CO)NC(=O)[C@H]2CCN(c3ncnc4[nH]ccc34)CC23CC3)c1 | TYK2 (Homo sapiens (Human)) | T

Ask | Identify whether the reported pEC50 of the following molecule is 7 or greater: O=C(N[C@@H](CO)c1ccc(F)cc1F)[C@H]1CCN(c2ncnc3[nH]ccc23)CC12CC2
Reply | T

Ask | Repeat with O=C(OCC1(CO)CC1)[C@H]1CCN(c2ncnc3[nH]ccc23)CC12CC2
Reply | T

Ask | Repeat with Cc1cc([C@@H](O)[C@H](C)NC(=O)[C@H]2CCN(c3ncnc4[nH]ccc34)CC23CC3)ncc1F
Reply | F

Ask | Repeat with C[C@@H](NC(=O)[C@H]1CCN(c2ncnc3[nH]ccc23)CC12CC2)c1ccc(C#N)cc1F
Reply | F

Ask | Repeat with C[C@H](NC(=O)[C@H]1CCN(c2ncnc3[nH]ccc23)CC12CC2)[C@@H](O)c1ccc(F)cn1
Reply | T

Ask | Repeat with N#Cc1ccc([C@H](CO)NC(=O)[C@H]2CCN(c3ncnc4[nH]ccc34)CC23CC3)cc1
Reply | T

Ask | Repeat with O=C(OCC1(CO)CC(F)(F)C1)[C@H]1CCN(c2ncnc3[nH]ccc23)CC12CC2
Reply | T
